- Tested on: Staphylococcus epidermidis
- METHOD NOTES: Expected efficacy of anti-bacterial agents against various bacteria (Tables 5 and 6)
- SETTINGS: Gram: pos
READOUT: Efficacy of various antibiotic agents

# count of solved cases: 4
molecule="CO/N=C(\\C(=O)N[C@@H]1C(=O)N2C(C(=O)O)=C(CSc3nc(=O)c(=O)[nH]n3C)CS[C@H]12)c1csc(N)n1 [Ceftriaxone]" target_system="Staphylococcus epidermidis" result_value=yes
molecule="NC[C@H]1O[C@H](O[C@H]2[C@H](O)[C@@H](O[C@H]3O[C@H](CO)[C@@H](O)[C@H](N)[C@H]3O)[C@H](N)C[C@@H]2N)[C@H](N)C[C@@H]1O [Tobramycin]" target_system="Staphylococcus epidermidis" result_value=no
molecule="CC[C@H]1OC(=O)[C@H](C)[C@@H](O[C@H]2C[C@@](C)(OC)[C@@H](O)[C@H](C)O2)[C@H](C)[C@@H](O[C@@H]2O[C@H](C)C[C@H](N(C)C)[C@H]2O)[C@](C)(O)C[C@@H](C)CN(C)[C@H](C)[C@@H](O)[C@]1(C)O [Azithromycin]" target_system="Staphylococcus epidermidis" result_value=yes
molecule="O=C(O)c1cn(C2CC2)c2cc(N3CCNCC3)c(F)cc2c1=O [Ciprofloxacin]" target_system="Staphylococcus epidermidis" result_value=yes

Now for another entry.
Inquiry: State the recorded Efficacy of various antibiotic agents for this entry: CN[C@H](CC(C)C)C(=O)N[C@H]1C(=O)N[C@@H](CC(N)=O)C(=O)N[C@H]2C(=O)N[C@H]3C(=O)N[C@H](C(=O)N[C@H](C(=O)O)c4cc(O)cc(O)c4-c4cc3ccc4O)[C@H](O)c3ccc(c(Cl)c3)Oc3cc2cc(c3O[C@@H]2O[C@H](CO)[C@@H](O)[C@H](O)[C@H]2O[C@H]2C[C@](C)(N)[C@H](O)[C@H](C)O2)Oc2ccc(cc2Cl)[C@H]1O [Vancomycin]
Reply text: yes
